- Test system: AR-V7 transcriptional activity
- Experimental protocol: MMTV-LUC luciferase reporter assay in 22RV1 cells, DHT− (screening and IC50)
- Type: cell-based
- Condition: 22RV1 cells, 10 uM, no DHT; control = 100
Given measured MMTV-LUC activity (%) DHT−, output True if it is greater than or equal to 20% and False if not.

Worked set:
>>> class_assignment("CC(C)=CC[C@H](OC(=O)C=C(C)C)C1=CC(=O)c2c(O)ccc(O)c2C1=O [β, β-Dimethylacrylalkannin]")
"True"
>>> class_assignment("COC(=O)[C@]12OC[C@]34[C@H]([C@@H](O)[C@@H]1O)[C@@]1(C)CC(=O)C(O[C@@H]5O[C@H](CO)[C@@H](O)[C@H](O)[C@H]5O)=C(C)[C@@H]1C[C@H]3OC(=O)[C@H](OC(C)=O)[C@@H]24 [Yadanzioside I]")
"True"
>>> class_assignment("COC(=O)[C@]12OC[C@]34[C@H]([C@@H](O)[C@@H]1O)[C@@]1(C)C=C(O[C@@H]5O[C@H](CO)[C@@H](O)[C@H](O)[C@H]5O)C(=O)[C@@H](C)[C@@H]1C[C@H]3OC(=O)[C@H](OC(=O)/C=C(\\C)C(C)C)[C@@H]24 [Bruceantinoside A]")
"False"
>>> class_assignment("CC1=CC(=O)[C@@H](O)[C@@]2(C)[C@H]1[C@@H](O)[C@H]1OC(=O)[C@H](O)[C@]3(O)[C@]14CO[C@]3(CO)[C@@H](O)[C@H](O)[C@H]24 [Yadanziolide B]")
"False"

Incoming: Decide: is the reported value of MMTV-LUC activity (%) DHT− for CC1CCCC=CC(=O)c2c(O)cc(O)cc2CC(=O)O1 (centres unmarked) [10,11-Dehydrocurvularin] equal to or greater than 20%?
Outgoing: False

====

- Test system: AR-V7 transcriptional activity
- Experimental protocol: MMTV-LUC luciferase reporter assay in 22RV1 cells, DHT− (screening and IC50)
- Format: cell-based
- Condition: 22RV1 cells, 10 uM, no DHT; control = 100
Entries and their MMTV-LUC activity (%) DHT−
Please give a number only; it is taken to be in %.

Here are 4 compounds together with their reported answers.
>>> endpoint_result("COC(=O)[C@]12OC[C@]34[C@H]([C@@H](O)[C@@H]1O)[C@@]1(C)C=C(O[C@@H]5O[C@H](CO)[C@@H](O)[C@H](O)[C@H]5O)C(=O)[C@@H](C)[C@@H]1C[C@H]3OC(=O)[C@H](OC(C)=O)[C@@H]24 [Yadanzioside F]")
133.6
>>> endpoint_result("CC1=CC(=O)[C@@H](O)[C@]2(C)[C@H]3[C@@H](O)[C@H](O)[C@]4(C)OC[C@@]35[C@@H](C[C@@H]12)OC(=O)[C@H](O)[C@]54O [Bruceine D]")
7.9
>>> endpoint_result("C[C@H](CC(=O)C[C@@H](C)[C@H]1C[C@H](O)[C@@]2(C)C3=C(C(=O)C[C@]12C)[C@@]1(C)CCC(=O)C(C)(C)[C@@H]1C[C@@H]3O)C(=O)O [Ganoderic acid A]")
140.0
>>> endpoint_result("COC(=O)[C@]12OC[C@]34[C@H]([C@@H](O)[C@@H]1O)[C@@]1(C)C=C(O[C@@H]5O[C@H](CO)[C@@H](O)[C@H](O)[C@H]5O)C(=O)[C@@H](C)[C@@H]1C[C@H]3OC(=O)[C@H](OC(=O)/C=C(\\C)C(C)(C)O)[C@@H]24 [Yadanzioside C]")
110.4

Continue with the next compound.
Incoming: What value of MMTV-LUC activity (%) DHT− has been recorded for this entry: CC[C@](C)(O)C(=O)O[C@H]1C(=O)O[C@@H]2C[C@H]3C(C)=CC(=O)[C@@H](O)[C@]3(C)[C@H]3[C@@]4(O)OC[C@]32[C@@H]1[C@@H](C)[C@H]4O [(+)-Glaucarubinone]
Outgoing: 107.6
